tested on: Rel synthetase (ST); assay: Inhibition of Rel synthetase activity: (p)ppGpp production from GDP or GTP and radioactive ATP, TLC; format: biochemical; conditions: enzyme with GDP or GTP and radioactive ATP, absence or presence of compound
assay.metric: ST (inhibition of the synthetase activity)

smiles_notation=O=C1c2ccccc2C(=O)N1CCCc1nc(-c2cccc([N+](=O)[O-])c2)no1 assay_value=No
smiles_notation=CCN(CC)C(=O)CN1CCN(c2ccc(NC(=O)Cc3ccc(C)cc3)c(C(=O)O)c2)CC1 assay_value=Yes
smiles_notation=Cc1cc(C(=O)N2CCN(c3ncccn3)CC2)c(N)c([N+](=O)[O-])c1 assay_value=No
smiles_notation=O=c1oc2cc(OCc3nnn[nH]3)ccc2cc1-c1ccccc1 assay_value=Yes

* * *

system: Rel synthetase (ST); test: Inhibition of Rel synthetase activity: (p)ppGpp production from GDP or GTP and radioactive ATP, TLC; format: biochemical; conditions: enzyme with GDP or GTP and radioactive ATP, absence or presence of compound
assay.metric: ST (inhibition of the synthetase activity)

Examples with their reported ST (inhibition of the synthetase activity) follow.
compound=O=C1Nc2ccccc2/C1=N\c1cccc([N+](=O)[O-])c1 assay_value=Yes
compound=O=C(O)C1CCN(S(=O)(=O)c2ccc3[nH]c(=O)oc3c2)CC1 assay_value=Yes
compound=COc1ccc(CC(=O)Nc2ccc(N3CCC(N4CCCCC4)CC3)cc2C(=O)O)cc1 assay_value=Yes
compound=Cc1c(Cc2ccccc2)c(=O)oc2cc(OCC(=O)O)ccc12 assay_value=Yes
compound="O=C(CC(C(=O)O)C1CCCO1)NCCc1ccc2c(c1)OCO2 (stereo not drawn)" assay_value=no
compound=O=C(O)CCCC(=O)Nc1cc2[nH]c(=O)[nH]c2cc1N1CCCC1 assay_value=no
compound=O=[N+]([O-])c1ccc(CSc2nnc(-c3ccccc3F)o2)cc1 assay_value=No
compound=Cc1nnc2ccc(N3CCN(C(=O)Nc4ccccc4[N+](=O)[O-])CC3)nn12 assay_value=No

Now look at this entry.
**Query** Give ST (inhibition of the synthetase activity) only, for O=C(Nc1nnn[nH]1)c1cc(-c2ccc3c(c2)CCO3)[nH]n1 , using Rel synthetase (ST) data.
**Result** No

* * *

target: RelTt^NTD (Thermus thermophilus, UniProt Q5SHL3); experiment: Isothermal Titration Calorimetry (ITC), titration into RelTt^NTD; format: binding, T. thermophilus; settings: read-out: Kd
Sequence (Q5SHL3 entry or part of it): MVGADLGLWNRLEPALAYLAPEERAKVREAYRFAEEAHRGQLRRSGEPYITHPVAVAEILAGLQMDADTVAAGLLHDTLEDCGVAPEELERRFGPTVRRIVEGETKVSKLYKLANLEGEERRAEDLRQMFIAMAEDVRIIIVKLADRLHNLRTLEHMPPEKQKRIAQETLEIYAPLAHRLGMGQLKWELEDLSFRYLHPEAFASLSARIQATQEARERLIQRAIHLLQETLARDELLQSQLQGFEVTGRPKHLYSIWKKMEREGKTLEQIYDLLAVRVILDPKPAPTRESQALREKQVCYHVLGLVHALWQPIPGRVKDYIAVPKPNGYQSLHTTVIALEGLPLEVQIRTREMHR
assay.metric: pKd
Here pKd is given on a logarithmic scale as minus log10 of the concentration in mol/L.

**Query** Report measured pKd; entry is Nc1nc2c(ncn2[C@@H]2O[C@H](COP(=O)(O)OP(=O)(O)O)[C@@H](O)[C@H]2O)c(=O)[nH]1 [GDP]
**Result** 4.64

* * *

test system: Rel synthetase (ST); test: Inhibition of Rel synthetase activity: (p)ppGpp production from GDP or GTP and radioactive ATP, TLC; format: biochemical; conditions: enzyme with GDP or GTP and radioactive ATP, absence or presence of compound
assay.metric: ST (inhibition of the synthetase activity)

Sample answers from the record:
compound="O=C(O)C1Cc2ccccc2CN1C(=O)Cn1nnc2ccccc21 (stereo not drawn)" assay_value=No
compound=Cc1cc(CCc2nnn[nH]2)c2c(C)c(Cc3ccccc3)c(=O)oc2c1 assay_value=Yes
compound="O=C(COc1ccc2ccccc2c1)N1N=C2/C(=C/c3cccc([N+](=O)[O-])c3)CCCC2C1c1cccc([N+](=O)[O-])c1 (stereo not drawn)" assay_value=No
compound=Cc1c(CC(=O)O)c(=O)oc2cc(O)cc(O)c12 assay_value=No
compound="O=C(O)CC(CNC(=O)CCn1nnc2ccccc2c1=O)c1ccc(Cl)cc1 (stereo not drawn)" assay_value=No

**Query** Note down ST (inhibition of the synthetase activity) recorded for O=C(O)CNS(=O)(=O)c1ccc2c(c1)NC(=O)CS2
**Result** No

**Query** Supply ST (inhibition of the synthetase activity) value. Item: Cc1ccc(-n2cnnn2)cc1OCc1nnn[nH]1
**Result** No

**Query** Give the value of ST (inhibition of the synthetase activity) reported for the following: O=[N+]([O-])c1cccc(CN2CCN(S(=O)(=O)c3ccc4ccccc4c3)CC2)c1
**Result** No

**Query** Hello, please tell me recorded ST (inhibition of the synthetase activity) for this one: O=C1OCc2ccc(-c3ccc(/C=N/Nc4nnn[nH]4)o3)cc21
**Result** Yes

**Query** Hello, please tell me recorded ST (inhibition of the synthetase activity) for this one: CC(C(=O)O)C(NC(=O)C(C)n1nnc(-c2ccccc2)n1)c1ccccc1 (stereo not drawn)
**Result** No

**Query** Tell me ST (inhibition of the synthetase activity) reported for O=C(O)CCS(=O)(=O)c1ccc2[nH]c(=O)oc2c1
**Result** No

**Query** Indicate the recorded ST (inhibition of the synthetase activity) value for this compound: COc1ccc(C=C2C(=O)Nc3ccc(C(=O)O)cc32)cc1
**Result** Yes

**Query** Fill in reported ST (inhibition of the synthetase activity) for this entry: O=[N+]([O-])c1nn(Cc2cccc(-c3nc4c5cn[nH]c5ncn4n3)c2)cc1Cl
**Result** Yes

**Query** Please give the documented ST (inhibition of the synthetase activity) of O=C1CCc2cc(-c3csc(NC(=O)c4cccc([N+](=O)[O-])c4)n3)ccc2N1
**Result** No

**Query** Give the reported value of ST (inhibition of the synthetase activity) for this record: CSCCC(NS(=O)(=O)c1ccc2c3c(cccc13)C(=O)N2)C(=O)O (stereo not drawn)
**Result** Yes

**Query** Return the recorded ST (inhibition of the synthetase activity) value; entry: Cn1c(=O)[nH]c(=O)c2[nH]c(SCC(=O)O)nc21
**Result** No

**Query** Look up and state reported ST (inhibition of the synthetase activity) for COc1ccc(-c2cc3ccc(OCc4nnn[nH]4)cc3oc2=O)cc1
**Result** Yes

**Query** Find the measured ST (inhibition of the synthetase activity) of O=[N+]([O-])c1ccc(Sc2nnc3c(n2)[nH]c2ccccc23)c([N+](=O)[O-])c1 and report it.
**Result** No
